# experiment description: reversal of MRP1-mediated doxorubicin resistance, pilot screen, H69AR cells, doxorubicin co-treatment (AID 601)
# study conditions: H69AR cells, CellTiter-Glo, 72 h; compound alone cytotoxicity; at 10 µM
Response field label takes true (1) when viability is strictly below 90% and false (0) in all other cases.

>>> label("CCCc1nc2ccccc2c(=O)n1NC(=O)c1c(O)c2cccc3c2n(c1=O)CCC3")
"true (1)"
>>> label("COc1ccccc1CC(NC(C)=O)C(=O)NC1CCN(c2nnnn2-c2ccccc2)CC1 (configuration not stated)")
"false (0)"
>>> label("O=C(NCc1ccco1)c1c2c(nc3ccccc13)CCC2")
"true (1)"
>>> label("COc1ccc(N(CC(=O)Nc2ccccc2SC)S(C)(=O)=O)cc1OC")
"false (0)"
>>> label("O=C(CN1CCC(O)(c2ccc3c(c2)OCO3)CC1)OC1CCCCC1")
"false (0)"
>>> label("Cc1cccc(C(=O)O)c1NC(=O)c1ccc(F)cc1")
"false (0)"
>>> label("CCN(CC)C(=O)c1ccc(O)c(OC)c1")
"false (0)"
>>> label("CC(=O)[C@H]1[C@H](C#N)C[C@H]2[C@@H]3CC=C4C[C@@H](O)CC[C@]4(C)[C@H]3CC[C@@]21C")
"true (1)"

###

// viability lookup, one value per entry
# experiment description: reversal of MRP1-mediated doxorubicin resistance, pilot screen, H69AR cells, doxorubicin co-treatment (AID 601)
# study conditions: H69AR cells + 2 uM doxorubicin, CellTiter-Glo, 72 h; measured here: viability with 2 uM doxorubicin; at 10 µM; stronger effect = lower value
quantity: viability (%)

>>> reported_result("Cc1nc2nc(-c3cccnc3)nn2c(C)c1Cl")
89.2
>>> reported_result("COc1cccc(NC(=O)C2C3C=CC4(O3)C2C(=O)N(C(C)C)C4C(=O)NC2CCCCC2C)c1 (stereo not given)")
88.1
>>> reported_result("Cc1cc(C)nc(SCCS(=O)Cc2ccc(Cl)cc2)n1 (stereo not given)")
91.5
>>> reported_result("O=C(O)c1ccc(-n2nc(C(F)(F)F)c3c2-c2ccoc2CC3)cc1")
87.9
>>> reported_result("N#CCC(=O)N1CCn2c1nc1ccccc12")
88.5
>>> reported_result("CCCCn1cnc2c1c(=O)n(C)c(=O)n2C")
89
>>> reported_result("c1cncc(C2Nc3ccccc3-c3nc4ccccc4n32)c1 (stereo not given)")
90.9
>>> reported_result("COc1cc(C(=O)N(C)c2nnc(-c3cccnc3)s2)cc(OC)c1OC")
91.6
>>> reported_result("COC(=O)[C@H](CCSC)NC(=O)Nc1cc(C)ccc1C")
90
>>> reported_result("O=C(O)c1cc(O)c2c(c1)C(=O)c1cccc(O)c1C2=O")
91.4

###

# experiment description: reversal of MRP1-mediated doxorubicin resistance, pilot screen, H69AR cells, doxorubicin co-treatment (AID 601)
# study conditions: H69AR cells + 2 uM doxorubicin, CellTiter-Glo, 72 h; measured here: viability with 2 uM doxorubicin; at 10 µM; stronger effect = lower value
// viability lookup, one value per entry
quantity: viability (%)

>>> reported_result("CC1(C)S[C@@H]2[C@H](NC(=O)C(C(=O)O)c3ccccc3)C(=O)N2[C@H]1C(=O)O (stereo partly drawn)")
103
>>> reported_result("CN(CCNC(=O)c1ccc(N2CCCC2=O)cc1)CCc1ccccc1")
92.6
>>> reported_result("O=C1C2CC=C(Cl)CC2C(=O)N1CNc1ccccn1 (stereo not drawn)")
105
>>> reported_result("CCC(C)(C)n1nnnc1C(c1ccc(OC)c(OC)c1)N1CCN(c2ccccc2)CC1 (stereo not drawn)")
78.9
>>> reported_result("CCN1CCCC1CNCc1ccc(Cl)cc1Cl (stereo not drawn)")
94.4
>>> reported_result("CNC(=O)Oc1ccc2c(c1)[C@]1(C)CCN(C)[C@@H]1N2C")
101
>>> reported_result("Nc1nnc(SCc2cc3c(cc2Cl)OCO3)s1")
85.2
>>> reported_result("CCCCn1c(CN(C)Cc2ccccc2)nc2c1c(=O)n(C)c(=O)n2C")
79.6
>>> reported_result("Clc1ccc(OCCCn2cncn2)cc1Cl")
86.5
>>> reported_result("N#CC1=C(N)Oc2c(ccc3cccnc23)C1c1cccnc1 (stereo not drawn)")
26
>>> reported_result("COC(=O)c1[nH]c(C)c(/C(O)=C2\\C(=O)C(=O)N(CCCN3CCOCC3)C2c2ccccn2)c1C (stereo not drawn)")
96.1
>>> reported_result("COC(=O)Cc1[nH]nc2c1C(C1C=CCCC1)C(C#N)=C(N)O2 (stereo not drawn)")
88.2
>>> reported_result("COc1ccc(Cl)c(N2CCN(CCCNC(=O)Nc3ccc(C)cc3)CC2)c1")
60.3
>>> reported_result("C=CCn1c(=O)c(C(=O)Nc2ccccc2C(=O)OCC)c(O)c2ccccc21")
60
>>> reported_result("Cc1c(NC(=O)c2cnn3c2NC(c2ccco2)CC3C(F)(F)F)c(=O)n(-c2ccccc2)n1C (stereo not drawn)")
87
>>> reported_result("O=C(Sc1nnnn1C1CCCCC1)c1cccs1")
92.5
>>> reported_result("Cc1ccc2[nH]c(=O)c(CN(CCc3ccccc3)Cc3nnnn3CC3CCCO3)cc2c1 (stereo not drawn)")
78.3
>>> reported_result("COc1ccc(C)cc1NC(=O)CN1CCN(S(=O)(=O)c2ccc(Cl)cc2)CC1")
57.3
>>> reported_result("CN(C)S(=O)(=O)c1ccc(C(=O)N2CCCC2c2nc3ccccc3s2)cc1 (stereo not drawn)")
92.9
>>> reported_result("CCn1c(CCC(=O)Nc2nc3c(s2)CCCC3)nc2cc(S(=O)(=O)N(C)C)ccc21")
66.7
>>> reported_result("CCNc1ccc(S(=O)(=O)C(F)(F)F)cc1NC(=O)C12CCC(CC1)C2")
95.7
>>> reported_result("NC(=O)C1(N2CCCCC2)CCN(C(=O)Nc2ccccc2C(F)(F)F)CC1")
86.7
>>> reported_result("CCCNC(=O)c1cc(S(=O)(=O)N2CCc3ccccc32)ccc1F")
90.3

###

# experiment description: 384-well plate pilot, post-Golgi transport modulator project, inhibition of yeast transport mutant growth (AID 636)
# study conditions: absorbance 615 nm, about 18 h, stronger effect = higher value
// inhibition lookup, one value per entry
quantity: inhibition (%)

>>> reported_result("CCOC(=O)c1c2n(c3ccc(O)cc13)CCCCC2")
-7.47
>>> reported_result("CCOC(=O)N1CCN(C(=O)Nc2ccc3oc(C)nc3c2)CC1")
-2.63
>>> reported_result("Cc1cccn2c(=O)c3cc(C#N)c(=NC(=O)c4ccncc4)n(Cc4ccco4)c3nc12")
-1.58

###

# experiment description: reducers of endogenous Her2 protein level, primary screen, SKBR3 breast tumor cells, AlphaScreen, ATP viability (AID 461);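 further: percent of carrier control wells set as 100% viability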
# study conditions: 18-24 h, measured here: SKBR3 viability, ATP luminescence, at 10 µM
// viability lookup, one value per entry
quantity: viability (%)

>>> reported_result("Cc1onc(-c2ccccc2)c1C(=O)N1CCOCC1")
110
>>> reported_result("CCn1c(SCC(=O)Nc2ccc3c(c2)OCO3)nc2c(c1=O)SC(C)C2 (stereo unspecified)")
92.5
>>> reported_result("CC(C)Cc1nc(N2CCN(C(=O)c3ccco3)CC2)c(C#N)c2c1CCC2")
172
>>> reported_result("Cc1sc2nc(SCc3nc4ccccc4[nH]3)n(Cc3ccco3)c(=O)c2c1C")
96.5
>>> reported_result("O=c1c2[nH]c3cccc(Cl)c3c2ncn1CCN1CCCCC1")
103
>>> reported_result("CCOc1ccc(C2C(C(=O)OC)=CN(CCOC)C=C2C(=O)OC)cc1")
106
>>> reported_result("CC1CN(C2CCCCC2)c2nc3c(c(=O)[nH]c(=O)n3C)n2C1 (stereo unspecified)")
90.5
>>> reported_result("CCOCCn1c(CN2CCN(c3cccc(Cl)c3)CC2)nc2c1c(=O)n(C)c(=O)n2C")
85
>>> reported_result("O=C(Cn1ncc2c(=O)oc3ccccc3c21)Nc1nc2ccccc2s1")
113
>>> reported_result("Cn1c(=O)[nH]c(=O)c2c1nc(N1CCCCCC1)n2CCCSc1nc2ccccc2o1")
84.5
>>> reported_result("O=C(Nc1sc2c(c1C(=O)NCc1ccco1)CCCC2)c1ccc2c(c1)OCO2")
89.5
>>> reported_result("Cc1cccc(NC(=O)CC2NC3CCCCC3NC2=O)c1 (stereo unspecified)")
99.5
>>> reported_result("CC(C)CN(CC(C)C)C(=O)C12CCC(C)(C(=O)C1)C2(C)C (stereo unspecified)")
74
>>> reported_result("Fc1ccc(-c2nnc(CN3CCN(c4ncc(C(F)(F)F)cc4Cl)CC3)o2)cc1")
104
>>> reported_result("COc1ccc(CNc2oc(COc3ccccc3Cl)nc2C#N)cc1")
84
>>> reported_result("CCn1c(SCc2nc(-c3cccs3)no2)nnc1-c1c[nH]c2ccccc12")
99
>>> reported_result("Clc1ccccc1OCCCCn1ccnc1")
95
>>> reported_result("COc1ccc(N2C(=O)C3CCCN3C2c2ccc(F)cc2)cc1Cl (stereo unspecified)")
102
>>> reported_result("COc1ccccc1N1CCN(S(=O)(=O)CC23CCC(CC2=O)C3(C)C)CC1 (stereo unspecified)")
102
>>> reported_result("O=S(=O)(Cc1ccccc1)N1CCN(Cc2ccccc2)CC1")
84.5
>>> reported_result("Cc1ccc(O)c(-c2cc3ccccc3[nH]2)c1")
105
>>> reported_result("Cn1c(=O)cc(OCC(=O)NCCCN2CCN(Cc3ccccc3)CC2)c2ccccc21")
90.5
>>> reported_result("CCOP(=O)(c1ccc(N(C)C)cc1)C(O)c1c(Cl)cccc1Cl (stereo unspecified)")
83
>>> reported_result("Cn1c(SCC(=O)c2ccc(-c3ccccc3)cc2)nnc1-c1ccco1")
120
>>> reported_result("CCOC(=O)CSc1nnc(CNC(=O)c2cccs2)n1-c1cc(OC)ccc1OC")
96.5
>>> reported_result("COc1cc(/C=N/n2c(C)nnc2C)cc(OC)c1OC")
104
